Please go through the items and note down their Activity.
target: UniProt Q9UM73; experiment: Inhibition of ALK phosphorylation in mouse xenografted with human KARPAS299 cells assessed as p-ALK level at 25 mg/kg, po administered as single dose measured after 16 hrs relative to 2 hrs vehicle-treated tumor; format: organism-based; design: scale not given: the % may be the effect or the level left; conditions: KARPAS-299
Your answer should be a plain number; it is taken to be in %.

Can you look up the measured Activity of `COc1cc(C2CCN(C)CC2)ccc1Nc1ncc(Cl)c(Nc2ccccc2P(C)(C)=O)n1` for me?
69

Can you look up the measured Activity of `COc1cc(N2CCC(N3CCN(C)CC3)CC2)ccc1Nc1ncc(Cl)c(Nc2ccccc2P(C)(C)=O)n1` for me?
7

Can you look up the measured Activity of `COc1cc(N2CCC(N3CCCC3)CC2)ccc1Nc1ncc(Cl)c(Nc2ccccc2P(C)(C)=O)n1` for me?
39

Can you look up the measured Activity of `COc1cc(N2CCC(O)CC2)ccc1Nc1ncc(Cl)c(Nc2ccccc2P(C)(C)=O)n1` for me?
25

Can you look up the measured Activity of `COc1cc(N2CCC(N3CCOCC3)CC2)ccc1Nc1ncc(Cl)c(Nc2ccccc2P(C)(C)=O)n1` for me?
52

Can you look up the measured Activity of `COc1cc(OC2CCN(C)CC2)ccc1Nc1ncc(Cl)c(Nc2ccccc2P(C)(C)=O)n1` for me?
125

Can you look up the measured Activity of `COc1cc(N2CCC(CN3CCC3)CC2)ccc1Nc1ncc(Cl)c(Nc2ccccc2P(C)(C)=O)n1` for me?
60

Can you look up the measured Activity of `COc1cc(N2CCN(C)CC2)ccc1Nc1ncc(Cl)c(Nc2ccccc2P(C)(C)=O)n1` for me?
14

----------
Please go through the items and note down their AUC(0-inf).
assay: AUC (0 to infinity) in CD rat at 3 mg/kg, iv by LC-MS/MS analysis; format: ADME, organism-based; design: dose 3 mg/kg, time infinity, route intravenous; conditions: CD, in vivo
Your answer should be a plain number; it is taken to be in ng·h/mL.

Can you look up the measured AUC(0-inf) of `COc1cc(N2CCC(CN3CCC3)CC2)ccc1Nc1ncc(Cl)c(Nc2ccccc2P(C)(C)=O)n1` for me?
8620

Can you look up the measured AUC(0-inf) of `COc1cc(OC2CCN(C)CC2)ccc1Nc1ncc(Cl)c(Nc2ccccc2P(C)(C)=O)n1` for me?
5040

Can you look up the measured AUC(0-inf) of `COc1cc(N2CCC(N3CCCC3)CC2)ccc1Nc1ncc(Cl)c(Nc2ccccc2P(C)(C)=O)n1` for me?
2170

Can you look up the measured AUC(0-inf) of `COc1cc(N2CCN(CCO)CC2)ccc1Nc1ncc(Cl)c(Nc2ccccc2P(C)(C)=O)n1` for me?
1330

Can you look up the measured AUC(0-inf) of `COc1cc(N2CCC(N3CCOCC3)CC2)ccc1Nc1ncc(Cl)c(Nc2ccccc2P(C)(C)=O)n1` for me?
17900

Can you look up the measured AUC(0-inf) of `COc1cc(N2CCN(C)CC2)ccc1Nc1ncc(Cl)c(Nc2ccccc2P(C)(C)=O)n1` for me?
3090

Can you look up the measured AUC(0-inf) of `COc1cc(C2CCN(C)CC2)ccc1Nc1ncc(Cl)c(Nc2ccccc2P(C)(C)=O)n1` for me?
1550

Can you look up the measured AUC(0-inf) of `COc1cc(N2CCC(O)CC2)ccc1Nc1ncc(Cl)c(Nc2ccccc2P(C)(C)=O)n1` for me?
4550

----------
IC50, Insulin-like growth factor 1 receptor (Homo sapiens, UniProt P08069): measured values
Your answer should be a plain number; it is taken to be in nM.

Record lookup: for Insulin-like growth factor 1 receptor (Homo sapiens, UniProt P08069), what IC50 belongs to COc1cc(N2CCC(N3CCCCC3)C2)ccc1Nc1ncc(Cl)c(Nc2ccccc2P(C)(C)=O)n1 (stereo not drawn) ?
81.5

Record lookup: for Insulin-like growth factor 1 receptor (Homo sapiens, UniProt P08069), what IC50 belongs to `COc1cc(P(C)(C)=O)ccc1Nc1ncc(Cl)c(Nc2ccccc2P(C)(C)=O)n1` ?
139

Record lookup: for Insulin-like growth factor 1 receptor (Homo sapiens, UniProt P08069), what IC50 belongs to `COc1cc(N2CCC(N3CCN(C)CC3)CC2)ccc1Nc1ncc(Cl)c(Nc2ccccc2S(=O)(=O)N(C)C)n1` ?
1.93

Record lookup: for Insulin-like growth factor 1 receptor (Homo sapiens, UniProt P08069), what IC50 belongs to `COc1cc(N2CCC(N3CCN(C)CC3)CC2)ccc1Nc1ncc(C)c(Nc2ccccc2P(C)(C)=O)n1` ?
128

Record lookup: for Insulin-like growth factor 1 receptor (Homo sapiens, UniProt P08069), what IC50 belongs to COc1cc(N2CCC(N3CCN(C)CC3)CC2)ccc1Nc1ncc(Cl)c(Nc2ccccc2C(C)O)n1 (stereo not drawn) ?
36.1

Record lookup: for Insulin-like growth factor 1 receptor (Homo sapiens, UniProt P08069), what IC50 belongs to `COc1cc(N2CCC(N3CCN(C)CC3)CC2)c(F)cc1Nc1ncc(Cl)c(Nc2ccccc2P(C)(C)=O)n1` ?
59.5

Record lookup: for Insulin-like growth factor 1 receptor (Homo sapiens, UniProt P08069), what IC50 belongs to `COc1cc(N2CCC(N3CCN(C)CC3)CC2)ccc1Nc1ncc(C2CC2)c(Nc2ccccc2P(C)(C)=O)n1` ?
434

Record lookup: for Insulin-like growth factor 1 receptor (Homo sapiens, UniProt P08069), what IC50 belongs to `COc1cc(N2CCC(N3CCCC3)CC2)ccc1Nc1ncc(Cl)c(Nc2ccccc2P(C)(C)=O)n1` ?
20.3

----------
assay: AUC (0 to infinity) in CD rat at 10 mg/kg, po by LC-MS/MS analysis; assay type: ADME, organism-based; design: dose 10 mg/kg, route oral, time infinity; settings: in vivo
Entries are sorted into classes by AUC(0-inf) as follows: low value = under 4000 ng·h/mL, medium value = from 4000 ng·h/mL up to 9000 ng·h/mL, high value = 9000 ng·h/mL and over

Kindly state the category for this compound: `COc1cc(C2CCN(C)CC2)ccc1Nc1ncc(Cl)c(Nc2ccccc2P(C)(C)=O)n1`
medium value

Kindly state the category for this compound: `COc1cc(N2CCC(O)CC2)ccc1Nc1ncc(Cl)c(Nc2ccccc2P(C)(C)=O)n1`
high value

Kindly state the category for this compound: `COc1cc(N2CCC(N3CCOCC3)CC2)ccc1Nc1ncc(Cl)c(Nc2ccccc2P(C)(C)=O)n1`
high value

Kindly state the category for this compound: `COc1cc(N2CCC(CN3CCC3)CC2)ccc1Nc1ncc(Cl)c(Nc2ccccc2P(C)(C)=O)n1`
medium value

Kindly state the category for this compound: `COc1cc(N2CCN(CCO)CC2)ccc1Nc1ncc(Cl)c(Nc2ccccc2P(C)(C)=O)n1`
low value

Kindly state the category for this compound: `COc1cc(N2CCC(N3CCCC3)CC2)ccc1Nc1ncc(Cl)c(Nc2ccccc2P(C)(C)=O)n1`
low value

----------
target: ALK tyrosine kinase receptor (Homo sapiens, UniProt Q9UM73); test: Inhibition of ALK phosphorylation in mouse xenografted with human KARPAS299 cells assessed as p-ALK level at 25 mg/kg, po administered as single dose measured after 10 hrs relative to 2 hrs vehicle-treated tumor; type: organism-based; parameters: scale not given: the % may be the effect or the level left; conditions: KARPAS-299
Sequence (Q9UM73 19-1620 limits assumed): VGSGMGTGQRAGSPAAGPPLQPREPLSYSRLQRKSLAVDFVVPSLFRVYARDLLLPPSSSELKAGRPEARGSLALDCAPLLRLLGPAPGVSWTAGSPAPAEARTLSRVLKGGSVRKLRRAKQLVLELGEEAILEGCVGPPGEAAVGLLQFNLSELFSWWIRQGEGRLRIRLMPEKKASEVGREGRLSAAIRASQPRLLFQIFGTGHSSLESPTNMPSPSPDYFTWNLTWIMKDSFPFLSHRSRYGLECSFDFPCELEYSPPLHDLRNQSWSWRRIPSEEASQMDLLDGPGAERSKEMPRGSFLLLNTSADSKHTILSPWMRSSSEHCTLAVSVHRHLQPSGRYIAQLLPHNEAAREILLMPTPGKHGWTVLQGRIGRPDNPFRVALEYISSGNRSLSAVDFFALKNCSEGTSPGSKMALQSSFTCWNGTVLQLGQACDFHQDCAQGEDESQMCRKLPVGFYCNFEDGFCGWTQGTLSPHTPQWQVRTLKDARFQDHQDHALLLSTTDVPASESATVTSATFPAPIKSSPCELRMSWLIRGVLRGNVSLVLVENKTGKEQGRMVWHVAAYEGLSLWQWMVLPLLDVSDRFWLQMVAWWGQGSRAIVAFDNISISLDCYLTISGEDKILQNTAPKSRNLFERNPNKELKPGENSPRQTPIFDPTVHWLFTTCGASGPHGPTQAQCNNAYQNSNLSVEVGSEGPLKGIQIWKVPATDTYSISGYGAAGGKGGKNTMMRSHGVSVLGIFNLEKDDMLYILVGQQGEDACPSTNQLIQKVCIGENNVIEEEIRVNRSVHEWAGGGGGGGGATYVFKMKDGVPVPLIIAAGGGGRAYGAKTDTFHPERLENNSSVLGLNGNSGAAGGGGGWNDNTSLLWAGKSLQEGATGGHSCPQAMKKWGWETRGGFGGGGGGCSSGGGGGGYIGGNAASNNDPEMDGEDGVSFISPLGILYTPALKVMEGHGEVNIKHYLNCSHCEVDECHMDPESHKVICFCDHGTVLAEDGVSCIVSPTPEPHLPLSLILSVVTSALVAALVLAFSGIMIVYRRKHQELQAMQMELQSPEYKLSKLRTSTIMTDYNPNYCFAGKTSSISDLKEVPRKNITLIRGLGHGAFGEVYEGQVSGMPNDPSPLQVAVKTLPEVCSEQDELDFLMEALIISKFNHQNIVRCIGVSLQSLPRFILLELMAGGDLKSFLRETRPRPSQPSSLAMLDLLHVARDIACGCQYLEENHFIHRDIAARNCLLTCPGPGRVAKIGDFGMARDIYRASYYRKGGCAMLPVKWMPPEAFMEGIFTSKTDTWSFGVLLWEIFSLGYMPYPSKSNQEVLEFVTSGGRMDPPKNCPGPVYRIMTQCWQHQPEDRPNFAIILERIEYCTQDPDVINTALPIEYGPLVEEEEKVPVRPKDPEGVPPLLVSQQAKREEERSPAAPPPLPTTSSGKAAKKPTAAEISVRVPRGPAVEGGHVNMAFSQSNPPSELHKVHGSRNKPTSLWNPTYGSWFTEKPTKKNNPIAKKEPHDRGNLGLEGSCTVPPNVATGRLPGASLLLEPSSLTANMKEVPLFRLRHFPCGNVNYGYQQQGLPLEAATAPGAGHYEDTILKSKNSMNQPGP
VALUE TYPE: Activity (%)
Your answer should be a plain number; it is taken to be in %.

Can you look up the measured Activity of `COc1cc(N2CCC(N3CCN(C)CC3)CC2)ccc1Nc1ncc(Cl)c(Nc2ccccc2P(C)(C)=O)n1` for me?
1

Can you look up the measured Activity of `COc1cc(N2CCN(C)CC2)ccc1Nc1ncc(Cl)c(Nc2ccccc2P(C)(C)=O)n1` for me?
2

Can you look up the measured Activity of `COc1cc(N2CCC(N3CCCC3)CC2)ccc1Nc1ncc(Cl)c(Nc2ccccc2P(C)(C)=O)n1` for me?
2

Can you look up the measured Activity of `COc1cc(OC2CCN(C)CC2)ccc1Nc1ncc(Cl)c(Nc2ccccc2P(C)(C)=O)n1` for me?
23

Can you look up the measured Activity of `COc1cc(N2CCC(N3CCOCC3)CC2)ccc1Nc1ncc(Cl)c(Nc2ccccc2P(C)(C)=O)n1` for me?
15

Can you look up the measured Activity of `COc1cc(C2CCN(C)CC2)ccc1Nc1ncc(Cl)c(Nc2ccccc2P(C)(C)=O)n1` for me?
1

Can you look up the measured Activity of `COc1cc(N2CCC(CN3CCC3)CC2)ccc1Nc1ncc(Cl)c(Nc2ccccc2P(C)(C)=O)n1` for me?
13

----------
VALUE TYPE: pIC50
pIC50 is defined as minus the log10 of a concentration measured in mol/L.

Record lookup: for Insulin receptor (Homo sapiens, UniProt P06213), what pIC50 belongs to `COc1cc(N2CCC(CN3CCC3)CC2)ccc1Nc1ncc(Cl)c(Nc2ccccc2P(C)(C)=O)n1` ?
6.89

Record lookup: for Insulin receptor (Homo sapiens, UniProt P06213), what pIC50 belongs to `COc1cc(N2CCC(N3CCN(C)CC3)CC2)ccc1Nc1ncc(Cl)c(Nc2ccccc2P(C)(C)=O)n1` ?
6.71

Record lookup: for Insulin receptor (Homo sapiens, UniProt P06213), what pIC50 belongs to `COc1cc(N2CCC(N3CCN(C)CC3)CC2)ccc1Nc1ncc(Cl)c(Nc2ccccc2S(C)(=O)=O)n1` ?
8.29

Record lookup: for Insulin receptor (Homo sapiens, UniProt P06213), what pIC50 belongs to `COc1cc(N2CCC(N3CCN(C)CC3)CC2)ccc1Nc1ncc(Cl)c(Nc2ccccc2I)n1` ?
7.86

Record lookup: for Insulin receptor (Homo sapiens, UniProt P06213), what pIC50 belongs to `COc1cc(N2CCC(N3CCN(C)CC3)CC2)c(C)cc1Nc1ncc(Cl)c(Nc2ccccc2P(C)(C)=O)n1` ?
6.77

Record lookup: for Insulin receptor (Homo sapiens, UniProt P06213), what pIC50 belongs to `COc1cc(N2CCC(N3CCN(C)CC3)CC2)ccc1Nc1ncc(Cl)c(Nc2ccccc2C#N)n1` ?
6.89

Record lookup: for Insulin receptor (Homo sapiens, UniProt P06213), what pIC50 belongs to `COc1cc(-c2cnn(C3CCNCC3)c2)ccc1Nc1ncc(Cl)c(Nc2ccccc2P(C)(C)=O)n1` ?
6.15

Record lookup: for Insulin receptor (Homo sapiens, UniProt P06213), what pIC50 belongs to `COc1cc(N2CCC(N3CCN(C)CC3)CC2)ccc1Nc1ncc(Cl)c(Nc2ccccc2)n1` ?
7.09

Record lookup: for Insulin receptor (Homo sapiens, UniProt P06213), what pIC50 belongs to `COc1cc(N2CCC(N(C)C)CC2)ccc1Nc1ncc(Cl)c(Nc2ccccc2P(C)(C)=O)n1` ?
7.00

Record lookup: for Insulin receptor (Homo sapiens, UniProt P06213), what pIC50 belongs to COc1cc(OC2CCN(C)C2)ccc1Nc1ncc(Cl)c(Nc2ccccc2P(C)(C)=O)n1 (stereo not given) ?
6.40
